Please provide measured switch fluorescence ratio for the entries that follow.
# Tested on: ATP;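 also: ATP exposure 15 min at 22 °C before imaging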
# runDescription: switch fluorescence ratio, 500 uM ATP over buffer (Cy3 cluster intensity, sum of 5 cycles each) (fold (ratio)); higher = stronger signal-on switching upon ATP binding; sequences stand for … in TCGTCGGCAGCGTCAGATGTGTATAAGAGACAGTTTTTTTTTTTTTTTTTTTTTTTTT…TC
# conditionSummary: aptamer strand: ATP DNA aptamer (quencher-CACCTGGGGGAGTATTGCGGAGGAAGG + anchor), 100 nM annealed; ATP concentration: 500 uM
Just the number, please, no unit attached.

The recorded switch fluorescence ratio for entry `CGGGACATGA` equals 1.01

The recorded switch fluorescence ratio for entry `GGTGGTTTTG` equals 0.985

The recorded switch fluorescence ratio for entry `AAAGGATAGC` equals 1.02

The recorded switch fluorescence ratio for entry `AATTTTAACT` equals 1.02

The recorded switch fluorescence ratio for entry `CAGATGCGGA` equals 0.984

====

# System: ATP;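 also: ATP exposure 15 min at 22 °C before imaging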
# runDescription: switch fluorescence ratio, 500 uM ATP over buffer (Cy3 cluster intensity, sum of 5 cycles each) (fold (ratio)); higher = stronger signal-on switching upon ATP binding; sequences stand for … in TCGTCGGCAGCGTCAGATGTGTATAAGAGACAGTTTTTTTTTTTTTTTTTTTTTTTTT…TC
# conditionSummary: aptamer strand: ATP DNA aptamer (quencher-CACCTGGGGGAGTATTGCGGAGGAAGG + anchor), 100 nM annealed; ATP concentration: 500 uM
Please provide measured switch fluorescence ratio for the entries that follow.
Just the number, please, no unit attached.

The recorded switch fluorescence ratio for entry `TACGGGGGTG` equals 1.01

The recorded switch fluorescence ratio for entry `ATCGAAGGGG` equals 0.981

The recorded switch fluorescence ratio for entry `TTTATGGCCT` equals 1.02

The recorded switch fluorescence ratio for entry `TATTTCGTTG` equals 0.998

The recorded switch fluorescence ratio for entry `AGAAAGGTTG` equals 0.984

The recorded switch fluorescence ratio for entry `TAGGTAGGAG` equals 1

The recorded switch fluorescence ratio for entry `GTAGTTCTGC` equals 1

The recorded switch fluorescence ratio for entry `TGTTGGAAGG` equals 1.01

The recorded switch fluorescence ratio for entry `TTCTTTATTT` equals 0.993

The recorded switch fluorescence ratio for entry `GGGACAGGCG` equals 0.991

The recorded switch fluorescence ratio for entry `CGTACGTGCA` equals 1.02

The recorded switch fluorescence ratio for entry `CTTTAAGTTT` equals 0.997

The recorded switch fluorescence ratio for entry `TAAGTTTGTT` equals 0.997

The recorded switch fluorescence ratio for entry `CTTAGCCTTT` equals 0.983

The recorded switch fluorescence ratio for entry `TTATAAG` equals 1

The recorded switch fluorescence ratio for entry `GATGTGTGGG` equals 0.984

The recorded switch fluorescence ratio for entry `TGGTTAGATT` equals 0.996

The recorded switch fluorescence ratio for entry `TTTTATTTGT` equals 0.985

The recorded switch fluorescence ratio for entry `AGTAGGGGGG` equals 0.988

The recorded switch fluorescence ratio for entry `TTTTTTGGTT` equals 0.997

The recorded switch fluorescence ratio for entry `TAGCGAAAAA` equals 0.992

The recorded switch fluorescence ratio for entry `AAGGGGTGG` equals 1.02

The recorded switch fluorescence ratio for entry `TAGGGGGGAG` equals 0.981

The recorded switch fluorescence ratio for entry `GACAGGGTTA` equals 1

The recorded switch fluorescence ratio for entry `GGGGAAGGGC` equals 1.02

The recorded switch fluorescence ratio for entry `AGTCAAAAAG` equals 0.985

The recorded switch fluorescence ratio for entry `GCTGAGAGGC` equals 1

The recorded switch fluorescence ratio for entry `AGGATCATGG` equals 1.01

The recorded switch fluorescence ratio for entry `TTTGTATAGT` equals 1

The recorded switch fluorescence ratio for entry `TTAGGGCCGC` equals 0.966

The recorded switch fluorescence ratio for entry `GATGACCTCA` equals 0.998

The recorded switch fluorescence ratio for entry `GGGAGCGTTT` equals 0.981

The recorded switch fluorescence ratio for entry `CTCGTCGTAT` equals 1.06

The recorded switch fluorescence ratio for entry `TTATTACGGG` equals 1.01

The recorded switch fluorescence ratio for entry `TTTCGGCCAA` equals 1.62

The recorded switch fluorescence ratio for entry `CACAGTTTGC` equals 1.02

The recorded switch fluorescence ratio for entry `TTAAGCAACA` equals 1.13

The recorded switch fluorescence ratio for entry `AGGGGAGTGG` equals 0.992

The recorded switch fluorescence ratio for entry `AAGGTGGGGT` equals 1.03

The recorded switch fluorescence ratio for entry `TTGGGGGACT` equals 1.01

The recorded switch fluorescence ratio for entry `TGGTAATATT` equals 0.962

The recorded switch fluorescence ratio for entry `TTCGTACAGC` equals 1.04

The recorded switch fluorescence ratio for entry `GAGGGGTGGT` equals 0.987

The recorded switch fluorescence ratio for entry `GAGAGAGGGC` equals 0.966

The recorded switch fluorescence ratio for entry `CATAGTGTTT` equals 1.01

====

# Test system: ATP;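 also: ATP exposure 15 min at 22 °C before imaging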
# runDescription: switch fluorescence ratio, 500 uM ATP over buffer (Cy3 cluster intensity, sum of 5 cycles each) (fold (ratio)); higher = stronger signal-on switching upon ATP binding; sequences stand for … in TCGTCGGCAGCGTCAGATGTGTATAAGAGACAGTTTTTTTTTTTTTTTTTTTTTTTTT…TC
# conditionSummary: aptamer strand: ATP DNA aptamer (quencher-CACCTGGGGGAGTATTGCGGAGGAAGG + anchor), 100 nM annealed; ATP concentration: 500 uM
measurementType: switch fluorescence ratio
Just the number, please, no unit attached.

Summary line: `AGTTAGAGTC` , ATP, reported switch fluorescence ratio = 0.999

Summary line: `TGTCAGGAAA` , ATP, reported switch fluorescence ratio = 0.972

Summary line: `CATGTTTTTT` , ATP, reported switch fluorescence ratio = 0.987

Summary line: `TTTCGGGGAC` , ATP, reported switch fluorescence ratio = 1.43

Summary line: `CGGGGAGAGG` , ATP, reported switch fluorescence ratio = 0.998

Summary line: `TATCGGTCTT` , ATP, reported switch fluorescence ratio = 0.922

Summary line: `GGGGGTAATG` , ATP, reported switch fluorescence ratio = 0.974

Summary line: `GGGGCCCGGG` , ATP, reported switch fluorescence ratio = 1.04

Summary line: `TTAGGGAGTT` , ATP, reported switch fluorescence ratio = 0.978

Summary line: `TAAGTAGGGC` , ATP, reported switch fluorescence ratio = 1.2

Summary line: `TGTCAGTGGG` , ATP, reported switch fluorescence ratio = 0.975

Summary line: `TTTGCGTAAG` , ATP, reported switch fluorescence ratio = 1.02

Summary line: `ATAGGGGGGA` , ATP, reported switch fluorescence ratio = 1.01

Summary line: `AGGGATCTGC` , ATP, reported switch fluorescence ratio = 0.966

Summary line: `ATCCTATTGT` , ATP, reported switch fluorescence ratio = 1.03

Summary line: `CGTAACTGTG` , ATP, reported switch fluorescence ratio = 1.07

Summary line: `GATTGGGGCA` , ATP, reported switch fluorescence ratio = 1.02

Summary line: `GACTGCAGGT` , ATP, reported switch fluorescence ratio = 1.01

Summary line: `AAGCCAAGAG` , ATP, reported switch fluorescence ratio = 1.05

Summary line: `TGAGCGGGGG` , ATP, reported switch fluorescence ratio = 0.996

Summary line: `CTTATCTCTG` , ATP, reported switch fluorescence ratio = 1.05

Summary line: `GAGGTAGATA` , ATP, reported switch fluorescence ratio = 1.03

Summary line: `TTTGCTAAA` , ATP, reported switch fluorescence ratio = 1.01

Summary line: `CACTCTGTGT` , ATP, reported switch fluorescence ratio = 1.02

Summary line: `TGCAATTGGG` , ATP, reported switch fluorescence ratio = 1.08

Summary line: `ATCGGGAGAG` , ATP, reported switch fluorescence ratio = 1.05

Summary line: `TTGGTTATGG` , ATP, reported switch fluorescence ratio = 1

Summary line: `GTCGTAAAGG` , ATP, reported switch fluorescence ratio = 0.998

Summary line: `GGATGGGGGT` , ATP, reported switch fluorescence ratio = 0.997

Summary line: `GTTTCTTCGA` , ATP, reported switch fluorescence ratio = 0.973

Summary line: `GACGGTTAAA` , ATP, reported switch fluorescence ratio = 1.12

Summary line: `ATTCGGGTTT` , ATP, reported switch fluorescence ratio = 1.05

Summary line: `TATAATATAT` , ATP, reported switch fluorescence ratio = 1

Summary line: `ATTGTTGTGT` , ATP, reported switch fluorescence ratio = 0.999

Summary line: `TAGCCGGTTC` , ATP, reported switch fluorescence ratio = 1.03

Summary line: `GCATTTGGCC` , ATP, reported switch fluorescence ratio = 0.999

Summary line: `TAAGGTTTGT` , ATP, reported switch fluorescence ratio = 0.988

Summary line: `CGGGCTGGGT` , ATP, reported switch fluorescence ratio = 0.987

Summary line: `GTAATTGGTG` , ATP, reported switch fluorescence ratio = 0.992

Summary line: `ATCGGACTTG` , ATP, reported switch fluorescence ratio = 0.977

Summary line: `TTAGTGCTCC` , ATP, reported switch fluorescence ratio = 1.04

Summary line: `TCTAGGGGGG` , ATP, reported switch fluorescence ratio = 1.02

Summary line: `GATTTAGAAT` , ATP, reported switch fluorescence ratio = 1.01

Summary line: `GGCATTGGAT` , ATP, reported switch fluorescence ratio = 0.962

Summary line: `TGAAGCTTGT` , ATP, reported switch fluorescence ratio = 1

Summary line: `TTTAATAAAA` , ATP, reported switch fluorescence ratio = 0.988

Summary line: `TTGTTTTGCA` , ATP, reported switch fluorescence ratio = 0.971

Summary line: `AGTGTTGGGT` , ATP, reported switch fluorescence ratio = 1.02

Summary line: `GTTTATTCGC` , ATP, reported switch fluorescence ratio = 0.998

Summary line: `TTTATTCCGG` , ATP, reported switch fluorescence ratio = 1

Summary line: `GAGGTAAGGG` , ATP, reported switch fluorescence ratio = 0.998
